# study.target: ALA1 Loop1 (151–329 aa) (Arabidopsis thaliana)
# Sequence (P98204 151-329): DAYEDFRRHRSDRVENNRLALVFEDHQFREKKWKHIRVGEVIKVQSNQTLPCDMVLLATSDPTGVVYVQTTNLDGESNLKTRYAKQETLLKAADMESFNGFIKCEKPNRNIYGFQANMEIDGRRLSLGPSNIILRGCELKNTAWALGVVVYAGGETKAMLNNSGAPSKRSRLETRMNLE
readout.label: pKd
Numbers only, as −log10 of the molar value.

Consider the compound shown here: CCCCCCCC/C=C\CCCCCCCC(=O)OC[C@H](COP(=O)(O)O[C@H]1[C@H](O)[C@@H](O)[C@H](OP(=O)(O)O)[C@@H](O)[C@H]1O)OC(=O)CCCCCCC/C=C\CCCCCCCC What is its recorded pKd?
5.22

----------
Sequence of the target: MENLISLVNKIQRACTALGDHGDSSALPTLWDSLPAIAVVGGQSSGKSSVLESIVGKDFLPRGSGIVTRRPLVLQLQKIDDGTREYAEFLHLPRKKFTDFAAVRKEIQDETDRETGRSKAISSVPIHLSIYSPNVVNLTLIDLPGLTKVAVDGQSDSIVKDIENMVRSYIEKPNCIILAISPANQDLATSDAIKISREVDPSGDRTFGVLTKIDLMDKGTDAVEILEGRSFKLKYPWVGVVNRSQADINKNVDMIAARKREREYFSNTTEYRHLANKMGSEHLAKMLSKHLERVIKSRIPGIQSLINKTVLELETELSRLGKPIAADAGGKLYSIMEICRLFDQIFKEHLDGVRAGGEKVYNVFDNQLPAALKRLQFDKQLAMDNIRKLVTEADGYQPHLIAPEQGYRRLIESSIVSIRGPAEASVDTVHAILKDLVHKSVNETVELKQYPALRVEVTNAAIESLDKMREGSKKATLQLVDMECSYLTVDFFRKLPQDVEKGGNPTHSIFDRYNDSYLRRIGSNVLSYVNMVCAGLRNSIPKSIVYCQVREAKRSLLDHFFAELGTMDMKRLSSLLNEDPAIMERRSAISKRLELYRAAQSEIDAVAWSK
readout.label: pKd
Numbers only, as −log10 of the molar value.

Consider the compound shown here: CCCCCCCC/C=C\CCCCCCCC(=O)OC[C@H](COP(=O)(O)O[C@@H]1[C@H](O)[C@H](O)[C@@H](OP(=O)(O)O)[C@H](OP(=O)(O)O)[C@H]1O)OC(=O)CCCCCCC/C=C\CCCCCCCC [PI(4,5)P2] What is its recorded pKd?
5.91
